- subject of test: DNA polymerase β (Rattus norvegicus, UniProt P06766)
- experiment notes: Assay 2: inhibitory effect against DNA polymerase β ([3H]-dTTP incorporation)
- condition notes: recombinant rat DNA polymerase β, 0.05 U, 37° C., 60 minutes
Would you mind telling me the reported IC50 of each entry?
# number only, unit µM dropped from output

input: Entry CCCCCCCCCCCCCCCC(=O)OCC(O)CO[C@H]1O[C@H](CS(=O)(=O)[O-])[C@@H](O)[C@H](O)[C@@H]1O.[Na+] (stereo partly drawn) [SRAG2, sodium salt] : reported IC50 = ?
output: 28.7

input: Record request: IC50 value, item CCCCCCCCCCCCCCCCCC(=O)OCC(O)CO[C@H]1O[C@H](CS(=O)(=O)[O-])[C@@H](O)[C@H](O)[C@@H]1O.[Na+] (stereo partly drawn) [SRAG3, sodium salt]
output: 11.1
